Each recorded value in this set is attributed to patent US6534524B1.

Reported AUC(0-t) is given for each of the following compounds.
assay: Determination of inhibitor concentration in mouse plasma after intraperitoneal and oral dosing; type: in vivo; conditions: female, IP, 25 mg/kg, vehicle PEG400:H2O pH 2.3 30:70
endpoint: AUC(0-t)

INSERT INTO results (structurenotation, val) VALUES
  ('O=C(NCc1cccc(F)c1)c1ccccc1Sc1ccc2c(/C=C/c3ccccn3)n[nH]c2c1', '> 6300 ng·h/mL'),
  ('O=C(c1cccc(NC(=O)c2ccc(Cl)s2)c1)c1ccc2c(/C=C/c3ccccn3)n[nH]c2c1', '> 33800 ng·h/mL'),
  ('Cc1cc(C(=O)Nc2cccc(C(=O)c3ccc4c(/C=C/c5ccccn5)n[nH]c4c3)c2)cc(Cl)n1', '> 27000 ng·h/mL');

* * *

test system: human umbilical vein endothelial cells (HUVEC); experiment: HUVEC proliferation assay (VEGF-stimulated, MTT); assay type: cell-based; conditions: Library II, Y=S; 0.5 mM (column head; text: nominal 0.5 nM); crude reaction mixtures;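 note: relative to VEGF-stimulated control minus starvation-medium baseline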
endpoint: % inhibition of the proliferation of HUVEC (%)

INSERT INTO measurements (molecule, readoutunit, val) VALUES
  ('N#CCONC(=O)c1ccccc1Sc1ccc2c(/C=C/c3ccccn3)n[nH]c2c1', '%', 16),
  ('O=C(NCCc1ccncc1)c1ccccc1Sc1ccc2c(/C=C/c3ccccn3)n[nH]c2c1', '%', 18),
  ('CC(NC(=O)c1ccccc1Sc1ccc2c(/C=C/c3ccccn3)n[nH]c2c1)c1ccccc1 (stereo not drawn)', '%', 30),
  ('O=C(NC1CCSC1=O)c1ccccc1Sc1ccc2c(/C=C/c3ccccn3)n[nH]c2c1 (stereo not drawn) [drawing 785]', '%', 25),
  ('CNC(=O)c1ccccc1Sc1ccc2c(/C=C/c3ccccn3)n[nH]c2c1 [drawing 635]', '%', 8),
  ('COCCNC(=O)c1ccccc1Sc1ccc2c(/C=C/c3ccccn3)n[nH]c2c1', '%', 21),
  ('O=C(NCCC1OCCO1)c1ccccc1Sc1ccc2c(/C=C/c3ccccn3)n[nH]c2c1', '%', 38),
  ('O=C(NCS(=O)(=O)O)c1ccccc1Sc1ccc2c(/C=C/c3ccccn3)n[nH]c2c1', '%', 2),
  ('O=C(NNc1ccccn1)c1ccccc1Sc1ccc2c(/C=C/c3ccccn3)n[nH]c2c1 [drawing 760]', '%', 32);

* * *

Reported AUClast is given for each of the following compounds.
Assay: Determination of inhibitor concentration in mouse plasma after intraperitoneal and oral dosing
Assay type: in vivo
Conditions: IP, 25 mg/kg, vehicle PEG400:H2O pH 2.3 30:70
Method: Blood collection was via ocular bleed at 0.5, 1, 4 hr with the final time point, 7 hour, via intracardiac puncture. The blood was centrifuged to collect plasma, which was then stored at −80° C. until analysis. Samples were prepared for analysis using an internal standard and sodium hydroxide. […] The samples were then analyzed via HPLC or LC-MS. Compound levels were quantitated by generating a standard curve of known compound concentration in mouse plasma.
endpoint: AUClast (ng·h/mL)

INSERT INTO results (compound, readoutunit, val) VALUES
  ('CC(C)ONC(=O)c1ccccc1Sc1ccc2c(/C=C/c3ccccn3)n[nH]c2c1', 'ng·h/mL', 2640),
  ('O=C(NCC1CC1)c1ccccc1Sc1ccc2c(/C=C/c3ccccn3)n[nH]c2c1', 'ng·h/mL', 4865),
  ('Cc1cc(C(=O)Nc2cccc(C(=O)c3ccc4c(/C=C/c5ccccn5)n[nH]c4c3)c2)on1', 'ng·h/mL', 1864),
  ('O=C(NCC(F)(F)F)c1ccccc1Sc1ccc2c(/C=C/c3ccccn3)n[nH]c2c1', 'ng·h/mL', 1887),
  ('O=C(c1cccc(NC(=O)C2C[C@H]2c2ccccc2)c1)c1ccc2c(/C=C/c3ccccn3)n[nH]c2c1 (stereo partly shown)', 'ng·h/mL', 1854),
  ('C=C(C)CNC(=O)c1ccccc1Sc1ccc2c(/C=C/c3ccccn3)n[nH]c2c1 [Example 35(ee)]', 'ng·h/mL', 546),
  ('Cn1nc(C(C)(C)C)cc1C(=O)Nc1cccc(C(=O)c2ccc3c(/C=C/c4ccccn4)n[nH]c3c2)c1', 'ng·h/mL', 9408);
